Target: human NAMPT (Homo sapiens (Human))
Sequence (P43490 whole entry): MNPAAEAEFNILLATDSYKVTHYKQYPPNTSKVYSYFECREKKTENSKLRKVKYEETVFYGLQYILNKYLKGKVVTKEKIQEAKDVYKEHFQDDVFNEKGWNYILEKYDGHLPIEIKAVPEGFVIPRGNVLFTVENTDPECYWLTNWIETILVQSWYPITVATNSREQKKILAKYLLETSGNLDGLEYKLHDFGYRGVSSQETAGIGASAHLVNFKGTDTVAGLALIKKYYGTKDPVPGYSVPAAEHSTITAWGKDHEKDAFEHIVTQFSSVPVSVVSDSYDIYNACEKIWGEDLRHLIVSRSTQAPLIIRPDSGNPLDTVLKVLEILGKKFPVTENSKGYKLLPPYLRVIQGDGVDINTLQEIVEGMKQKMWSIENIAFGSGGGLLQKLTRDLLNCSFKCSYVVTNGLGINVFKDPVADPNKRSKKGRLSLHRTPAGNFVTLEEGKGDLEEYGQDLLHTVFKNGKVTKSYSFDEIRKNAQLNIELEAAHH
Experiment: NMN fluorescence biochemical assay (human recombinant NAMPT enzyme assay)
Measured Property: EC50

Completed entries (count: 3):
> print(dat)
                                   molecule                         target.desc  measured.property  endpoint.result
1  Cc1cnc(C(=O)NCc2ccc(NC(=O)OCc3ccc(Cl)cc3)cc2)o1 [Compound 294]  human NAMPT (Homo sapiens (Human))               EC50          46.5 µM
2  COC(=O)N1CCC(Cc2ccc(NC(=O)OCc3ccc(Cl)cc3)cc2)CC1 [Compound 98]  human NAMPT (Homo sapiens (Human))               EC50          1.49 µM
3  COc1cc(C(=O)N(C)Cc2ccc(NC(=O)OCc3ccc(Cl)cc3)cc2)n(C)n1 [Compound 90]  human NAMPT (Homo sapiens (Human))               EC50          7.32 µM

Problem: Tell me EC50 of Cc1ncoc1C(=O)N[C@@H](C)c1ccc(NC(=O)OCc2ccc(Cl)cc2)cc1 [Compound 152] when tested on human NAMPT (Homo sapiens (Human)).
Solution: 10.6 µM
